Recorded values, source ChEMBL document CHEMBL1201862.

Entries annotated with measured GI50
- Tested on: SNB-19
- Method Summary: NCI tumour cell line growth inhibition, 48 h
Active and inactive are the calls of the source. No stated cut-off is given here; in the data, active = GI50 up to about 1.1 µM and inactive = higher.

# example entries with known answers
{"columns": ["Molecule", "Measured Target", "Value Reported"],
 "data": [
  ["CCOc1c(Cc2ccccc2)c(=O)n2c3ccccc3n3c(=O)n(C)c(=O)c1c23", "SNB-19", "> 100 µM (inactive)"],
  ["Cc1ccc(/N=N/c2c(O)c(C(=O)O)cc3ccccc23)c(S(=O)(=O)O)c1", "SNB-19", "> 100 µM (inactive)"],
  ["Cc1cc(NS(=O)(=O)c2ccc(NC(=O)c3cccc4cc5ccccc5nc34)cc2)no1", "SNB-19", "6.46 µM (inactive)"],
  ["O=C1/C(=C/c2n[nH]cc2-c2ccc(Cl)cc2)C(=O)N(c2ccccc2)C1c1ccccc1 (configuration not stated)", "SNB-19", "27.4 µM (inactive)"],
  ["CC1=C(CCC(C)CO)O[C@H]2C[C@H]3[C@@H]4CC[C@H]5C[C@@H](O)CC[C@]5(C)[C@H]4CC(=O)[C@]3(C)[C@@H]12 (some centres not stated)", "SNB-19", "22.3 µM (inactive)"],
  ["Cc1ccc(/C=N/n2c(=O)[nH]c3ccccc3c2=O)cc1", "SNB-19", "> 100 µM (inactive)"]
]}

Please look up its GI50: CCN(CC)CCC(=O)NC1c2ccc(Cl)cc2Oc2c(C)cccc21 (configuration not stated)
14 µM (inactive)

// next record CC(=O)OCCOCNC(=S)N/N=C/c1cc([N+](=O)[O-])ccc1O
> 100 µM (inactive)

Check COc1cc(OC)c(/C=N/N=C(\N)NO)c(OC)c1 too.
> 100 µM (inactive)

Also CCCCc1c2c(nc3c1CCCC3=O)CCCC2 ?
> 100 µM (inactive)

# iterate: COc1ccc(-c2nc(O)c3ccccc3n2)cc1
> 100 µM (inactive)

How about N#CC(C(=O)C(=O)Nc1ccc(Cl)c(Cl)c1)c1ccc(Cl)cc1 (configuration not stated) ?
65.5 µM (inactive)

----------
- System: SN12C
- Method Summary: NCI tumour cell line growth inhibition, 48 h
Active and inactive are the calls of the source. No stated cut-off is given here; in the data, active = GI50 up to about 1.1 µM and inactive = higher.
The reply should name one outcome from active, inactive

Would you please look over these solved cases?
{"columns": ["Compound", "Class Label"],
 "data": [
  ["N=C(N)N/N=C(/CCN1CCCC1)CC(c1ccccc1)c1c(O)c2ccccc2oc1=O (centres undefined)", "inactive"],
  ["CC(C)=CC[S+]([O-])c1ccccc1NC1=CC(=O)CC(C)(C)C1 (centres undefined)", "inactive"],
  ["Cc1cc(C)c(N[S+]([O-])c2cccc(C(F)(F)F)c2)c(C)c1 (centres undefined)", "inactive"],
  ["Cc1cc(C)n(C2OC(CO)C(O)C(O)C2O)c(=S)c1C#N (centres undefined)", "inactive"],
  ["COc1cc2c(c3nc4ccccc4nc13)-c1ccc(SC)c(=O)cc1[C@@H](NC(C)=O)CC2", "active"],
  ["CSCC[C@@H](NC(=O)[C@H](CC(C)C)NC(=O)C(Cc1cnc[nH]1)NC(=O)CNC(=O)[C@@H](NC(=O)[C@H](C)NC(=O)[C@H](Cc1c[nH]c2ccccc12)NC(=O)[C@H](CCC(N)=O)NC(=O)[C@@H](N)CC(N)=O)C(C)C)C(N)=O (some centres undefined)", "inactive"]
]}

GET /call?item= CCCCC#C[I+]c1ccccc1 returns the recorded outcome of this test.
inactive

Same question, CC1CN=C(Nc2ccccc2)S1 (centres undefined) this time
inactive

# iterate: Nc1nc(N)c2ncn(Cc3ccccc3CO)c2n1
inactive
